Numbers sourced from patent US20220402985A1.

Target: ErbB4 on neonatal rat cardiomyocytes (rat) (UniProt Q62956)
Sequence (Q62956 26-1308): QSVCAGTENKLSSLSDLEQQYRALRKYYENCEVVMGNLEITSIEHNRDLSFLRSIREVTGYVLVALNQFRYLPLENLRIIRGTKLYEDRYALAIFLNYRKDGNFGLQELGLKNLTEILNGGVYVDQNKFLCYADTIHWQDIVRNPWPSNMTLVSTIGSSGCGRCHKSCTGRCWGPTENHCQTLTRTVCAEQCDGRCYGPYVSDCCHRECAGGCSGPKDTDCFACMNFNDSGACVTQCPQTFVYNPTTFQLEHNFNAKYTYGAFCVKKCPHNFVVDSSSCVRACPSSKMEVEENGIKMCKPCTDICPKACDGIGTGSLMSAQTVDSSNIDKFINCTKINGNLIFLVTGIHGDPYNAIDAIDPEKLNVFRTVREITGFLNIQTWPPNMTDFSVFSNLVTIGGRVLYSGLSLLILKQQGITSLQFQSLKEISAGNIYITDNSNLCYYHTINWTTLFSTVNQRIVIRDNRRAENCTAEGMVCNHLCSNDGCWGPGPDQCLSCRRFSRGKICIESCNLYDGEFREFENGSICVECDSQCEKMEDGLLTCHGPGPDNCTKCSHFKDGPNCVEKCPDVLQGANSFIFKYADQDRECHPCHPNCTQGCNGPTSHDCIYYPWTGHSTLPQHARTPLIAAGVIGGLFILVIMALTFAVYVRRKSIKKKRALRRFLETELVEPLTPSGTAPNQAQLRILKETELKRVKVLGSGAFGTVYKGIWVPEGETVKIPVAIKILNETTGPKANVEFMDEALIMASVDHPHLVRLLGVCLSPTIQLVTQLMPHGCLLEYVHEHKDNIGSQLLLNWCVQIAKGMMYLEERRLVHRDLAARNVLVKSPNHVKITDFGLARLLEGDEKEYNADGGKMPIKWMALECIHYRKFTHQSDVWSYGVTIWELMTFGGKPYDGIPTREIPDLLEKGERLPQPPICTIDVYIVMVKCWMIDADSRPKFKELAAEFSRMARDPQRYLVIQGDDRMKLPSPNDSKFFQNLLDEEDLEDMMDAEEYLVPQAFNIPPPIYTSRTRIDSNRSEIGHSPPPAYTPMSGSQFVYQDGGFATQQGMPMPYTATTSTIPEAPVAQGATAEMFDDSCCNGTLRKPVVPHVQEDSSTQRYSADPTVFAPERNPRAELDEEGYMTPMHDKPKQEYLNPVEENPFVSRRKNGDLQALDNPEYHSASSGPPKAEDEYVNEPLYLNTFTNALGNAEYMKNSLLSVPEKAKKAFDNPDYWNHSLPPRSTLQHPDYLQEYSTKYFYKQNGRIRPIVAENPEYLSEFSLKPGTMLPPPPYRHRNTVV
Test: cell-based or functional assay
outcome-measure: Selectivity SC/CM
Number, no unit, nothing else.

Selectivity SC/CM in this record for huNRG1(S177-Q237)(2E3)::GG::huFcSEFL2 (Pb) (Fc fusion) SHLVKCGEKEKSFCVNGGECYMIEGLSIPSRFLCKCPNEFTGDRCQDVFMASFYKAEELYQGGDKTHTCPPCPAPELLGGPSVFLFPPKPKDTLMISRTPEVTCVVVDVSHEDPEVKFNWYVDGVEVHNAKTKPCEEQYGSTYRCVSVLTVLHQDWLNGKEYKCKVSNKALPAPIEKTISKAKGQPREPQVYTLPPSREEMTKNQVSLTCLVKGFYPSDIAVEWESNGQPENNYKTTPPVLDSDGSFFLYSKLTVDKSRWQQGNVFSCSVMHEALHNHYTQKSLSLSPGK : 1520

Selectivity SC/CM in this record for huNRG1(S177-Q237)(_FVIEDPSI)::GG::huFcSEFL2 (Pb) (Fc fusion) SHLVKCAEKEKTFCVNGGECFVIEDPSIPSRYLCKCPNEFTGDRCQNYVMASFYKAEELYQGGDKTHTCPPCPAPELLGGPSVFLFPPKPKDTLMISRTPEVTCVVVDVSHEDPEVKFNWYVDGVEVHNAKTKPCEEQYGSTYRCVSVLTVLHQDWLNGKEYKCKVSNKALPAPIEKTISKAKGQPREPQVYTLPPSREEMTKNQVSLTCLVKGFYPSDIAVEWESNGQPENNYKTTPPVLDSDGSFFLYSKLTVDKSRWQQGNVFSCSVMHEALHNHYTQKSLSLSPGK : 24

Selectivity SC/CM in this record for huNRG1(S177-Q237)(2G4)::GG::huFcSEFL2 (Pb) (Fc fusion) SHLVKCAENEKTFCVNGGECFVVEGLSIPSRYLCKCPNEFTGDRCQDVFMASFYKAEELYQGGDKTHTCPPCPAPELLGGPSVFLFPPKPKDTLMISRTPEVTCVVVDVSHEDPEVKFNWYVDGVEVHNAKTKPCEEQYGSTYRCVSVLTVLHQDWLNGKEYKCKVSNKALPAPIEKTISKAKGQPREPQVYTLPPSREEMTKNQVSLTCLVKGFYPSDIAVEWESNGQPENNYKTTPPVLDSDGSFFLYSKLTVDKSRWQQGNVFSCSVMHEALHNHYTQKSLSLSPGK : 414

// switching to the query binder
Selectivity SC/CM in this record for huNRG1(S177-Q237)(NRGE1K)::GG::huFcSEFL2 (Pb) (Fc fusion) SHLVKCAEKHKSFCVNGGECFMIEGPSNPSRYLCKCPNEFTGDRCQDDFMASFYKAEELYQGGDKTHTCPPCPAPELLGGPSVFLFPPKPKDTLMISRTPEVTCVVVDVSHEDPEVKFNWYVDGVEVHNAKTKPCEEQYGSTYRCVSVLTVLHQDWLNGKEYKCKVSNKALPAPIEKTISKAKGQPREPQVYTLPPSREEMTKNQVSLTCLVKGFYPSDIAVEWESNGQPENNYKTTPPVLDSDGSFFLYSKLTVDKSRWQQGNVFSCSVMHEALHNHYTQKSLSLSPGK : 1320
